- tested_on: human EP2 prostanoid receptors (Homo sapiens, UniProt P43116)
- Construct: expressed in transfected cells; host or cells: HEK-293
- Sequence (P43116 whole entry): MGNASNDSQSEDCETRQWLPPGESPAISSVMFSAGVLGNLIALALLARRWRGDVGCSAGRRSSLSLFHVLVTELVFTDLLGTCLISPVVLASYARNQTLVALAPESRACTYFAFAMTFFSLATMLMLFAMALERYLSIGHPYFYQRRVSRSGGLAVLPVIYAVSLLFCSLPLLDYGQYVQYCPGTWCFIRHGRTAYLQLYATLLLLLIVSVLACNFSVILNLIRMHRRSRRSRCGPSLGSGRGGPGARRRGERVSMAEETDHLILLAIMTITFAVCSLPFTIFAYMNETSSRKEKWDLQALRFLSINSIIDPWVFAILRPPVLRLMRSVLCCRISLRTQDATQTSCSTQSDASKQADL
- measurement_protocol: Agonist activity at recombinant human EP2 prostanoid receptors (cAMP in HEK-293 clones)
- Format: cell-based

{"chemical_string": "O=C(O)/C=C/c1cccc(NC(=O)c2cccc(-c3cccc(Cl)c3)n2)c1", "EC50": "< 100 nM"}

====

- tested_on: human EP2 receptor (Homo sapiens, UniProt P43116)
- Construct: expressed in transfected cells
- measurement_protocol: Binding ability to human EP receptors ([3H]PGE2 displacement), EP2
- experimental_context: membranes expressing human EP2; [3H]PGE2 3 nM; Cheng-Prusoff; read-out: pKi (M) EP2 (converted)

{"chemical_string": "O=C(O)/C=C/c1cccc(NC(=O)c2ccc(-c3cc(Cl)cc(Cl)c3)o2)c1", "tested_on": "human EP2 receptor (Homo sapiens, UniProt P43116)", "Ki": "< 1e-07 M"}
{"chemical_string": "O=C(Nc1cccc(OCc2nnn[nH]2)c1)c1ccc(-c2ccccc2)o1", "tested_on": "human EP2 receptor (Homo sapiens, UniProt P43116)", "Ki": "< 1e-06 M"}
{"chemical_string": "O=C(O)Cc1cccc(NC(=O)c2ccc(-c3cccc(F)c3)o2)c1", "tested_on": "human EP2 receptor (Homo sapiens, UniProt P43116)", "Ki": "< 1e-06 M"}
{"chemical_string": "CC(C)c1cccc(-c2ccc(C(=O)Nc3cccc(CC(=O)O)c3)o2)c1", "tested_on": "human EP2 receptor (Homo sapiens, UniProt P43116)", "Ki": "< 1e-06 M"}
{"chemical_string": "O=C(O)Cc1cccc(NC(=O)c2ccc(-c3ccco3)o2)c1", "tested_on": "human EP2 receptor (Homo sapiens, UniProt P43116)", "Ki": "< 1e-05 M"}
{"chemical_string": "O=C(O)Cc1cccc(NC(=O)c2cccc(-c3cccc(Cl)c3)n2)c1", "tested_on": "human EP2 receptor (Homo sapiens, UniProt P43116)", "Ki": "< 1e-07 M"}
{"chemical_string": "O=C(O)/C=C/c1cccc(NC(=O)c2cccc(-c3ccc(F)cc3)n2)c1", "tested_on": "human EP2 receptor (Homo sapiens, UniProt P43116)", "Ki": "< 1e-07 M"}
{"chemical_string": "O=C(O)c1cccc(CNC(=O)c2ccc(-c3ccccc3)o2)c1", "tested_on": "human EP2 receptor (Homo sapiens, UniProt P43116)", "Ki": "< 1e-05 M"}
{"chemical_string": "CN(C)c1ccc(-c2ccc(C(=O)Nc3cccc(CC(=O)O)c3)o2)cc1", "tested_on": "human EP2 receptor (Homo sapiens, UniProt P43116)", "Ki": "< 1e-06 M"}
